These measurements were taken from PubChem BioAssay (NCI).

System: UACC-62 melanoma
Assay: NCI-60 one-dose screen, 48 h
Details: 10 µM unless noted
Protocol: Growth inhibition of the UACC-62 human tumor cell line is measured as a screen for anti-cancer activity. Cells are grown in 96 well plates and exposed to the test compound for 48 hours. Compounds are tested at a single concentration, which is 10^-5 M for most compounds. The reported endpoint is percent growth (GI% or GIPRCNT), where numbers from 0 - 100% represent growth inhibition, and numbers from -100% - 0 represent cell death. For example, a value of 40 represents 60% growth inhibition. […]
The panel holds about 83,000 compounds, 20% with a hit somewhere; the sample as a whole holds those more often. Active and inactive are the calls of the source. Rule for the calls: active = growth percent below 10; inactive = the rest.
Outcomes: active, inactive

In [3]: df
Out[3]:
                                    compound  class_label
 0  COc1cc(CNC(=O)Cc2ccccc2)ccc1OCc1cn(-c2ccc(F)cc2)nn1     inactive
 1  Cc1ccc(NCCNCC(O)CO)c2c(=O)c3ccccc3sc12 (stereo not drawn)       active
 2    O=C(Nc1ccsc1C(=O)NC1CCCCC1)c1ccc(F)cc1     inactive
 3  Oc1ccc(-c2nc(-c3ccc4oc5ccc(-c6[nH]c(-c7ccc(O)cc7)nc6-c6ccccc6)cc5c4c3)c(-c3ccccc3)[nH]2)cc1     inactive
 4  CCOC(=O)c1cc2c(n1Cc1cccc(OC)c1)-c1oncc1CCC2     inactive
 5  Cc1ccc(Cc2cnc(NC(=O)CN3C(=O)/C(=C\c4ccccc4)SC3=S)s2)cc1     inactive
 6  O=S(=O)(c1ccccc1)n1cc2c(c1-c1ccccc1)CCc1sc(Nc3ccccc3)nc1-2     inactive
 7  COC(=O)c1c2c(c(C)[n+]([O-])c1C)C(=O)C(NCc1ccc(Br)cc1)=CC2=O       active
 8  O=C(COc1cc(O)c2c(=O)cc(-c3ccccc3)oc2c1)Nc1ccccc1     inactive
 9  C#CCn1cc(C=C2C(=O)N(C)C(=O)N(C)C2=O)c2cc(Cl)ccc21     inactive
10  COc1ccc(-c2cn[nH]c2-c2cc(OC)c(OC)c(OC)c2)cc1OCc1ccccc1     inactive
11   COc1ccc(OC)c(NC(=O)/C(C#N)=C/c2ccco2)c1     inactive
12  COc1ccc2oc(=O)cc(Cn3cc(Cn4cnc5c4c(=O)n(C)c(=O)n5C)nn3)c2c1     inactive

###

System: SK-OV-3 ovarian
Assay: NCI-60 one-dose screen, 48 h (100 = growth as untreated, 0 = no growth, -100 = all killed)
Conditions: 10 µM unless noted
Compounds without any hit were thinned out: in the full panel of roughly 83,000, 20% have a hit.
The compounds listed here are annotated with their growth.

COMPOUND	growth [%]
Clc1ccc(Nc2nnc(-c3ccc4c(c3)OCO4)o2)cc1	102
COc1ccc(CCN2CCC(CN(C)Cc3cnn(-c4ccccc4)c3)CC2)cc1	39.2
COc1ccc(C2Nc3nc(OC)n(C)c(=O)c3N=C3c4ccccc4C(=O)C32)cc1 (configuration not stated)	109
NC1(N2SC(S)=C3CCCC=C32)CCCCC1	100
CC[C@]1(O)C[C@@H]2CN(CCc3c([nH]c4ccccc34)[C@@](C(=O)OC)(c3cc4c(cc3OC)N(C)[C@H]3[C@@](O)(C(=O)OC)[C@H](OC(=O)CCCBr)[C@]5(CC)C=CCN6CC[C@]43[C@@H]65)C2)C1	30.8
COc1cccc(/C=C/C(=O)c2c(C)nc3ccccc3c2/C=C/c2ccccc2)c1OC	89.8
Cn1c2c(c(=O)[nH]c1=O)NC1=C(C(=O)c3ccccc31)C1(C=C(O)c3ccccc31)N2 (configuration not stated)	111
O=C(Nc1ccc(Cl)cc1F)c1cc(I)ccc1O	-4.98
Cn1nc(C(C)(C)C)cc1NC(=O)Cc1ccc(/C=C2\C(=O)Nc3ccccc32)cc1	60.7
CC(C)CCOc1ccc(-c2n[nH]c(C(F)(F)F)c2-c2cncc(C#N)c2)c(O)c1	-7.94
CN(C)c1ccc(N=Cc2ccc(N3CCOCC3)cc2)cc1	94.7
O=C(NC(=S)Nc1cccc(NC(=S)NC(=O)c2ccccc2)c1)c1ccccc1	44.1
